Test system: HCV replicon
assayText: Anti-HCV replicon assay (EC50, luciferase readout)
Assay type: cell-based, hepatitis C virus
testParameters: Hepatitis C virus, 72 h; human hepatoma Huh-7 cell line harbouring a HCV replicon; 3 days incubation; luciferase signal; read-out: EC50
pEC50: −log10 of the molar value.
observedProperty: pEC50

Worked set:
>  <smilesNotation>
CCOc1nc(N)nc2ncc(-c3ccc(S(C)(=O)=O)cc3)nc12

>  <testSystem>
HCV replicon

>  <pEC50>
5.00 to 6.00

$$$$
>  <smilesNotation>
COc1ccccc1-c1cnc2nc(N)nc(N3CCOCC3)c2n1

>  <testSystem>
HCV replicon

>  <pEC50>
6.00 to 6.52

$$$$
>  <smilesNotation>
CNC(=O)c1ccc(-c2cnc3nc(N)nc(N4CCOCC4)c3n2)cc1

>  <testSystem>
HCV replicon

>  <pEC50>
5.00 to 6.00

$$$$
>  <smilesNotation>
Nc1nc(N2CCOCC2)c2nc(-c3ccsc3)cnc2n1

>  <testSystem>
HCV replicon

>  <pEC50>
5.00 to 6.00

$$$$

Qu. Quick one: pEC50 for Nc1nc(N2CCOCC2)c2nc(-c3ccccc3C(F)(F)F)cnc2n1 ?
Ans. 6.00 to 6.52

Qu. Quick one: pEC50 for CCOc1nc(N)nc2ncc(-c3ccc(OC)c(F)c3)nc12 ?
Ans. 5.00 to 6.00

Qu. Quick one: pEC50 for Nc1nc(N2CCOCC2)c2nc(-c3ccc(C(F)(F)F)cc3C(F)(F)F)cnc2n1 ?
Ans. 5.00 to 6.00
